Tested on: HuO-3N1 (Osteosarcoma)
ASSAY METHOD TEXT: combination Emax (second highest fraction inhibited in the dose matrix, 72 h); higher = more inhibition; extreme values may be limits of the assay
Measured combination Emax, listed per entry for reference.
Number, no unit, nothing else.

MOLECULE	OBSERVED
COc1cccc(OCCCN)c1-c1cc(Nc2cnc(C#N)cn2)n[nH]1 [Prexasertib] + C=CCn1c(=O)c2cnc(Nc3ccc(N4CCN(C)CC4)cc3)nc2n1-c1cccc(C(C)(C)O)n1 [AZD1775] (first compound max 1 µM, partner max 1 µM)	0.756
CN(CCO)CC[C@H](CSc1ccccc1)Nc1ccc(S(=O)(=O)NC(=O)c2ccc(N3CCC([C@@H](O)c4ccccc4-c4ccc(Cl)cc4)CC3)cc2)cc1S(=O)(=O)C(F)(F)F [AZD4320] + C=CCn1c(=O)c2cnc(Nc3ccc(N4CCN(C)CC4)cc3)nc2n1-c1cccc(C(C)(C)O)n1 [AZD1775] (first compound max 1 µM, partner max 1 µM)	0.349
CN(CCO)CC[C@H](CSc1ccccc1)Nc1ccc(S(=O)(=O)NC(=O)c2ccc(N3CCC([C@@H](O)c4ccccc4-c4ccc(Cl)cc4)CC3)cc2)cc1S(=O)(=O)C(F)(F)F [AZD4320] + Cc1cc2ncnn2cc1Nc1ncc2c(n1)n(C1CCOCC1)c(=O)n2C [AZD7648] (first compound max 1 µM, 7x7, partner max 10 µM)	0.139
NC1(C(=O)N[C@@H](CCO)c2ccc(Cl)cc2)CCN(c2ncnc3[nH]ccc23)CC1 [Capivasertib] + CCN(CCO)CCCOc1ccc2c(Nc3cc(CC(=O)Nc4cccc(F)c4)[nH]n3)ncnc2c1 [AZD2811] (first compound max 10 µM, 7x7, partner max 1 µM)	0.494
COc1nnc2ccc(N3CCC(c4ccc(OCCN5CCN(C)C(=O)[C@H]5C)cc4)CC3)nn12 [AZD5153] + CC1(C)CCC(CN2CCN(c3ccc(C(=O)NS(=O)(=O)c4ccc(NCC5CCOCC5)c([N+](=O)[O-])c4)c(Oc4cnc5[nH]ccc5c4)c3)CC2)=C(c2ccc(Cl)cc2)C1 [Venetoclax] (first compound max 1 µM, 7x7, partner max 1 µM)	0.337

Read the next record carefully.
# return recorded combination Emax for entry CN(CCO)CC[C@H](CSc1ccccc1)Nc1ccc(S(=O)(=O)NC(=O)c2ccc(N3CCC([C@@H](O)c4ccccc4-c4ccc(Cl)cc4)CC3)cc2)cc1S(=O)(=O)C(F)(F)F [AZD4320] + C1CN(CCC1(C(=O)N[C@@H](CCO)C2=CC=C(C=C2)Cl)N)C3=NC=NC4=C3C=CN4 [Capivasertib] (first compound max 1 µM, 7x7, partner max 3 µM)
0.201

Values compiled from the supplement of paper PMC11061612.
